assay: Bioavailability test in vivo in cynomolgus monkey (pharmacokinetics, IV and PO); settings: male, cynomolgus monkey, plasma; cynomolgus monkeys, iv, 3 mg/kg
parameter: MRT (h)

[I] C=CCn1c(=O)c2cnc(Nc3ccc(N4CCN(C)CC4)cc3)nc2n1-c1cccc(C(C)(C)O)n1 [Control 1, reference compound]
[II] C=CCn1c(=O)c2cnc(Nc3ccc(C4CCC(N5CCC5)CC4)cc3)nc2n1-c1cccc(C(C)(C)O)n1 (single isomer, unassigned) [Compound I-8-1]
Challenge: Name the one with the greater MRT value, either I or II as given. Please indicate the selected item by its label.
Response given: I
(I: 6.53 h, II: 3.17 h)

* * *

experiment: Bioavailability test in vivo in mice (pharmacokinetics, iv and intragastric); parameters: species or system ICR mice; settings: ICR, mouse, plasma, po (intragastric), 10 mg/kg
parameter: half-life (h)

Look over these answered cases.
| molecule | experimental_value |
| --- | --- |
| C=CCn1c(=O)c2cnc(Nc3ccc(N4CCN(C)CC4)cc3)nc2n1-c1cccc(C(C)(C)O)n1 [Control 1, reference compound] | 3.1 |
| C=CCn1c(=O)c2cnc(Nc3ccc4c(c3)CCC(N(C)C)C4)nc2n1-c1cccc(C(C)(C)O)n1 (centres unmarked) [Control 2, reference compound] | 2.51 |
| C=CCn1c(=O)c2cnc(Nc3ccc(C4CCC(N5CCC5)CC4)cc3)nc2n1-c1cccc(C(C)(C)O)n1 (centres unmarked) [Compound I-8] | 1.57 |

[P] C=CCn1c(=O)c2cnc(Nc3ccc(C4CCC(N5CCC5)CC4)cc3)nc2n1-c1cccc(C(C)(C)O)n1 (single isomer, unassigned) [Compound I-8-1]
[Q] C=CCn1c(=O)c2cnc(Nc3ccc(C4CCC(N(C)C)CC4)cc3)nc2n1-c1cccc(C(C)(C)O)n1 (single isomer, unassigned) [Compound I-1-1]
Challenge: Name the one with the greater half-life value, either P or Q as given. Please indicate the selected item by its label.
Response given: Q
(Q: 3.1 h, P: 1.57 h)

* * *

assay: Bioavailability test in vivo in cynomolgus monkey (pharmacokinetics, IV and PO); conditions: male, cynomolgus monkey, plasma, iv, 3 mg/kg, cynomolgus monkeys, iv, 3 mg/kg; read-out: Vss
parameter: Vd (L/kg)

[I] C=CCn1c(=O)c2cnc(Nc3ccc(N4CCN(C)CC4)cc3)nc2n1-c1cccc(C(C)(C)O)n1 [Control 1, reference compound]
[II] C=CCn1c(=O)c2cnc(Nc3ccc(C4CCC(N5CCC5)CC4)cc3)nc2n1-c1cccc(C(C)(C)O)n1 (single isomer, unassigned) [Compound I-8-1]
Challenge: # return whichever of I and II has the smaller Vd Please indicate the selected item by its label.
Response given: I

* * *

assay: Bioavailability test in vivo in mice (pharmacokinetics, iv and intragastric); set-up: species or system ICR mice; settings: ICR, mouse, plasma, iv, 3 mg/kg, iv, 3 mg/kg, read-out: Vz
parameter: Vd (L/kg)

| compound | unit_spec | Vd |
| --- | --- | --- |
| C=CCn1c(=O)c2cnc(Nc3ccc(C4CCC(N5CCC5)CC4)cc3)nc2n1-c1cccc(C(C)(C)O)n1 (centres unmarked) [Compound I-8] | L/kg | 16.3 |

[A] C=CCn1c(=O)c2cnc(Nc3ccc(C4CCC(N5CCC5)CC4)cc3)nc2n1-c1cccc(C(C)(C)O)n1 (single isomer, unassigned) [Compound I-8-1]
[B] C=CCn1c(=O)c2cnc(Nc3ccc(C4CCC(N(C)C)CC4)cc3)nc2n1-c1cccc(C(C)(C)O)n1 (single isomer, unassigned) [Compound I-1-1]
Challenge: Name the one with the greater Vd value, either A or B as given. Please indicate the selected item by its label.
Response given: B

[P] C=CCn1c(=O)c2cnc(Nc3ccc4c(c3)CCC(N(C)C)C4)nc2n1-c1cccc(C(C)(C)O)n1 (centres unmarked) [Control 2, reference compound]
[Q] C=CCn1c(=O)c2cnc(Nc3ccc(N4CCN(C)CC4)cc3)nc2n1-c1cccc(C(C)(C)O)n1 [Control 1, reference compound]
Challenge: # return whichever of P and Q has the smaller Vd Please indicate the selected item by its label.
Response given: Q
(Q: 10.3 L/kg, P: 22.2 L/kg)

* * *

test: Bioavailability test in vivo in cynomolgus monkey (pharmacokinetics, IV and PO); conditions: male, cynomolgus monkey, plasma; cynomolgus monkeys, po, 20 mg/kg, fasted
parameter: MRT (h)

[P] C=CCn1c(=O)c2cnc(Nc3ccc(C4CCC(N5CCC5)CC4)cc3)nc2n1-c1cccc(C(C)(C)O)n1 (single isomer, unassigned)
[Q] C=CCn1c(=O)c2cnc(Nc3ccc(N4CCN(C)CC4)cc3)nc2n1-c1cccc(C(C)(C)O)n1 [Control 1, reference compound]
Challenge: Name the one with the greater MRT value, either P or Q as given. Please indicate the selected item by its label.
Response given: P

* * *

assay: Bioavailability test in vivo in cynomolgus monkey (pharmacokinetics, IV and PO); conditions: male, cynomolgus monkey, plasma; cynomolgus monkeys, po 20 mg/kg vs iv 3 mg/kg; read-out: BA (absolute bioavailability)
parameter: bioavailability (%)

[I] C=CCn1c(=O)c2cnc(Nc3ccc(N4CCN(C)CC4)cc3)nc2n1-c1cccc(C(C)(C)O)n1 [Control 1, reference compound]
[II] C=CCn1c(=O)c2cnc(Nc3ccc(C4CCC(N5CCC5)CC4)cc3)nc2n1-c1cccc(C(C)(C)O)n1 (single isomer, unassigned)
Challenge: # return whichever of I and II has the smaller bioavailability Please indicate the selected item by its label.
Response given: I

* * *

test: Bioavailability test in vivo in mice (pharmacokinetics, iv and intragastric); design: species or system ICR mice; conditions: ICR, mouse, plasma, po (intragastric), 10 mg/kg
parameter: Cmax (ng/mL)

Look over these answered cases.
| compound | Cmax [ng/mL] |
| --- | --- |
| C=CCn1c(=O)c2cnc(Nc3ccc(N4CCN(C)CC4)cc3)nc2n1-c1cccc(C(C)(C)O)n1 [Control 1, reference compound] | 205 |
| C=CCn1c(=O)c2cnc(Nc3ccc(C4CCC(N5CCC5)CC4)cc3)nc2n1-c1cccc(C(C)(C)O)n1 (centres unmarked) [Compound I-8] | 58.1 |

[a] C=CCn1c(=O)c2cnc(Nc3ccc(C4CCC(N(C)C)CC4)cc3)nc2n1-c1cccc(C(C)(C)O)n1 (single isomer, unassigned) [Compound I-1-1]
[b] C=CCn1c(=O)c2cnc(Nc3ccc(C4CCC(N5CCC5)CC4)cc3)nc2n1-c1cccc(C(C)(C)O)n1 (single isomer, unassigned) [Compound I-8-1]
[c] C=CCn1c(=O)c2cnc(Nc3ccc4c(c3)CCC(N(C)C)C4)nc2n1-c1cccc(C(C)(C)O)n1 (centres unmarked) [Control 2, reference compound]
Challenge: // ranking: key=Cmax, reverse=True Response format: the labels, sorted as the prompt asks.
Response given: a, b, c
(a: 245 ng/mL, b: 58.1 ng/mL, c: 27.8 ng/mL)

* * *

assay: Bioavailability test in vivo in mice (pharmacokinetics, iv and intragastric); design: species or system ICR mice; conditions: ICR, mouse, plasma, iv, 3 mg/kg
parameter: half-life (h)

| compound | half-life, h |
| --- | --- |
| C=CCn1c(=O)c2cnc(Nc3ccc(C4CCC(N(C)C)CC4)cc3)nc2n1-c1cccc(C(C)(C)O)n1 (single isomer, unassigned) | 4.31 |
| C=CCn1c(=O)c2cnc(Nc3ccc(C4CCC(N5CCC5)CC4)cc3)nc2n1-c1cccc(C(C)(C)O)n1 (centres unmarked) [Compound I-8] | 1.22 |
| C=CCn1c(=O)c2cnc(Nc3ccc4c(c3)CCC(N(C)C)C4)nc2n1-c1cccc(C(C)(C)O)n1 (centres unmarked) [Control 2, reference compound] | 1.37 |

[a] C=CCn1c(=O)c2cnc(Nc3ccc(N4CCN(C)CC4)cc3)nc2n1-c1cccc(C(C)(C)O)n1 [Control 1, reference compound]
[b] C=CCn1c(=O)c2cnc(Nc3ccc(C4CCC(N5CCC5)CC4)cc3)nc2n1-c1cccc(C(C)(C)O)n1 (single isomer, unassigned) [Compound I-8-1]
Challenge: Name the one with the greater half-life value, either a or b as given. Please indicate the selected item by its label.
Response given: b
(b: 1.22 h, a: 0.65 h)

* * *

experiment: Bioavailability test in vivo in mice (pharmacokinetics, iv and intragastric); set-up: species or system ICR mice; conditions: ICR, mouse, plasma, po (intragastric), 10 mg/kg
parameter: MRT (h)

| molecule | experimental_value |
| --- | --- |
| C=CCn1c(=O)c2cnc(Nc3ccc(C4CCC(N5CCC5)CC4)cc3)nc2n1-c1cccc(C(C)(C)O)n1 (centres unmarked) [Compound I-8] | 3.47 |
| C=CCn1c(=O)c2cnc(Nc3ccc(C4CCC(N5CCC5)CC4)cc3)nc2n1-c1cccc(C(C)(C)O)n1 (single isomer, unassigned) [Compound I-8-1] | 3.47 |
| C=CCn1c(=O)c2cnc(Nc3ccc(C4CCC(N(C)C)CC4)cc3)nc2n1-c1cccc(C(C)(C)O)n1 (single isomer, unassigned) | 4.33 |
| C=CCn1c(=O)c2cnc(Nc3ccc(N4CCN(C)CC4)cc3)nc2n1-c1cccc(C(C)(C)O)n1 [Control 1, reference compound] | 4.33 |
| C=CCn1c(=O)c2cnc(Nc3ccc4c(c3)CCC(N(C)C)C4)nc2n1-c1cccc(C(C)(C)O)n1 (centres unmarked) [Control 2, reference compound] | 3.78 |
